Target: T1, Aβ1-42 fibrils (human)
T1 construct: Aβ1-42 polypeptide, HFIP-treated, incubated in 10 mM HCl at 37 C for 24 h, pelleted fibrillar fraction, sonicated; Multimeric fibril; also called fibril Aβ42; fibrillar Aβ42
T1 sequence (peptide, as listed by the source): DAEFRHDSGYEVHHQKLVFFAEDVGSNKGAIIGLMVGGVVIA
Experiment: SPR (BIAcore T200); Aβ1-42 fibrils immobilized, Fab as analyte; global 1:1 fit; apparent KD
measurementName: Kd (nM)
Give your result in nM as a bare value.

In: Consider the binder bapineuzumab Fab (Fab, V domains shown, also called hBP) VH: EVQLLESGGGLVQPGGSLRLSCAASGFTFSNYGMSWVRQAPGKGLEWVASIRSGGGRTYYSDNVKGRFTISRDNSKNTLYLQMNSLRAEDTAVYYCVRYDHYSGSSDYWGQGTLVTVSS VL: DVVMTQSPLSLPVTPGEPASISCKSSQSLLDSDGKTYLNWLLQKPGQSPQRLIYLVSKLDSGVPDRFSGSGSGTDFTLKISRVEAEDVGVYYCWQGTHFPRTFGQGTKVEIK and give its measured Kd.
Out: 5.34

In: Consider the binder h2731 Fab (Fab, V domains shown) VH: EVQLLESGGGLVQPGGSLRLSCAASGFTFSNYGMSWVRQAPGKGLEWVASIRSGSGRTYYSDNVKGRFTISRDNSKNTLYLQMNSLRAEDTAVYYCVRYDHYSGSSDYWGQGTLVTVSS VL: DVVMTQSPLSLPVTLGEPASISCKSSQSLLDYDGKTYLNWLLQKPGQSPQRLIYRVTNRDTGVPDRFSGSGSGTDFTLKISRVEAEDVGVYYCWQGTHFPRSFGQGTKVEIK and give its measured Kd.
Out: 2.24

In: Consider the binder h2931 Fab (Fab, V domains shown) VH: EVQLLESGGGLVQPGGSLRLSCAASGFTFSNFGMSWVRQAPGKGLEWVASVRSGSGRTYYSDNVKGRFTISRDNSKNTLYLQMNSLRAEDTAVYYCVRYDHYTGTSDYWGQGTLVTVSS VL: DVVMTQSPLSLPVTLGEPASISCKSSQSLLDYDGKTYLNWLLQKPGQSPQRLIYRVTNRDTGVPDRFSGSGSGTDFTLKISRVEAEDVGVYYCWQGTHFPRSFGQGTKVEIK and give its measured Kd.
Out: 1.62
